# EXPERIMENT_SUMMARY: Beagle PK (pharmacokinetics)
# Type: in vivo, beagle dogs
# EXPERIMENTAL_CONTEXT: whole blood; Beagle dog, IV 1 mg/kg, 4 hr; read-out: Blood drug concentration
Please respond with reported concentration at 4 h for every item in the list.
The response must be a number in ng/mL with no trailing unit.

Q. Looking for the measured concentration at 4 h of O=C(C1CCN(c2cc(-c3cc(OCCCO)ccc3F)ccn2)CC1)N1N=CCC1c1cc(F)cc(F)c1 (racemic) , can you help?
A. 26

Q. Looking for the measured concentration at 4 h of CC(C)(O)COc1ccc(F)c(-c2ccnc(N3CCC(C(=O)N4N=CC[C@H]4c4cc(F)cc(F)c4)CC3)c2)c1 (racemic) , can you help?
A. 176

---

# Test system: L929 cells
# EXPERIMENT_SUMMARY: Inhibition of cell necrosis (CCK8 method), L929 cells
# Type: cell-based, mouse
# EXPERIMENTAL_CONTEXT: Mus musculus, L929, L929, Murine TNF-α/Z-VAD-FMK, 4-8 hours, CCK8
Please respond with reported IC50 for every item in the list.

Q. Looking for the measured IC50 of CC(C)(O)COc1ccc(F)c(-c2ccnc(N3CCC(C(=O)N4N=CC[C@H]4c4cc(F)cc(F)c4)CC3)c2)c1 (racemic) , can you help?
A. ≤ 10 nM

Q. Looking for the measured IC50 of Cc1ccc(OCCCO)cc1-c1ccnc(N2CCC(C(=O)N3N=CCC3c3ccccc3)CC2)c1 (stereo not shown) , can you help?
A. 10 to 50 nM

Q. Looking for the measured IC50 of O=C(C1CCN(c2cc(-c3cc(OCCCCCO)ccc3F)ccn2)CC1)N1N=CCC1c1cc(F)cc(F)c1 (stereo not shown) , can you help?
A. 10 to 50 nM

Q. Looking for the measured IC50 of CC(C)(O)CCOc1ccc(F)c(-c2ccnc(N3CCC(C(=O)N4N=CCC4c4cc(F)cc(F)c4)CC3)c2)c1 (racemic) , can you help?
A. 10 to 50 nM

Q. Looking for the measured IC50 of NC(=O)c1ccc(N2CCC(C(=O)N3N=CCC3c3ccccc3)CC2)nc1 (stereo not shown) [compound 1, reference compound] , can you help?
A. > 4000 nM

Q. Looking for the measured IC50 of CC(C)(O)COc1ccc(F)c(-c2ccnc(N3CCC(C(=O)N4N=CCC4c4cc(F)cc(F)c4)CC3)c2)c1 (racemic) , can you help?
A. ≤ 10 nM

Q. Looking for the measured IC50 of CC(C)(O)CCCOc1ccc(F)c(-c2ccnc(N3CCC(C(=O)N4N=CC[C@H]4c4cc(F)cc(F)c4)CC3)c2)c1 (racemic) , can you help?
A. 10 to 50 nM

---

# EXPERIMENT_SUMMARY: Mouse PK&BBB (pharmacokinetics and brain penetration)
# Format: in vivo, CD-1 mice
# EXPERIMENTAL_CONTEXT: CD-1, whole blood, IV 2 mg/kg
RECORDED_METRIC: half-life (min)
The response must be a number in min with no trailing unit.

Q. Looking for the measured half-life of O=C(C1CCN(c2cc(-c3cc(OCCCO)ccc3F)ccn2)CC1)N1N=CC[C@H]1c1cc(F)cc(F)c1 (racemic) , can you help?
A. 45.3

---

# EXPERIMENT_SUMMARY: Mouse PK&BBB (pharmacokinetics and brain penetration)
# Format: in vivo, CD-1 mice
# EXPERIMENTAL_CONTEXT: CD-1, whole blood, PO 20 mg/kg
RECORDED_METRIC: half-life (min)
The response must be a number in min with no trailing unit.

Q. Looking for the measured half-life of O=C(C1CCN(c2cc(-c3cc(OCCCO)ccc3F)ccn2)CC1)N1N=CC[C@H]1c1cc(F)cc(F)c1 (racemic) [Example 40] , can you help?
A. 58

---

# EXPERIMENT_SUMMARY: Mouse PK&BBB (pharmacokinetics and brain penetration)
# Type: in vivo, CD-1 mice
# EXPERIMENTAL_CONTEXT: CD-1, whole blood, PO 20 mg/kg vs IV 2 mg/kg
RECORDED_METRIC: bioavailability (%)
The response must be a number in % with no trailing unit.

Q. Looking for the measured bioavailability of O=C(C1CCN(c2cc(-c3cc(OCCCO)ccc3F)ccn2)CC1)N1N=CC[C@H]1c1cc(F)cc(F)c1 (racemic) , can you help?
A. 28.2

---

# EXPERIMENT_SUMMARY: Mouse PK&BBB (pharmacokinetics and brain penetration)
# Type: in vivo, CD-1 mice
# EXPERIMENTAL_CONTEXT: CD-1, mouse, whole blood, iv, 2 mg/kg, IV 2 mg/kg, 2 hr, read-out: Blood drug concentration
RECORDED_METRIC: concentration at 2 h
# output: number + unit

Q. Looking for the measured concentration at 2 h of O=C(C1CCN(c2cc(-c3cc(OCCCO)ccc3F)ccn2)CC1)N1N=CC[C@H]1c1cc(F)cc(F)c1 (racemic) [Example 40] , can you help?
A. 0.0123 µg/mL

---

# EXPERIMENT_SUMMARY: Mouse PK&BBB (pharmacokinetics and brain penetration)
# Format: in vivo, CD-1 mice
# EXPERIMENTAL_CONTEXT: CD-1, whole blood, PO 20 mg/kg
RECORDED_METRIC: Cmax (ng/mL)
The response must be a number in ng/mL with no trailing unit.

Q. Looking for the measured Cmax of O=C(C1CCN(c2cc(-c3cc(OCCCO)ccc3F)ccn2)CC1)N1N=CC[C@H]1c1cc(F)cc(F)c1 (racemic) , can you help?
A. 421

---

# EXPERIMENT_SUMMARY: Beagle PK (pharmacokinetics)
# Type: in vivo, beagle dogs
# EXPERIMENTAL_CONTEXT: whole blood; Beagle dog, IV 1 mg/kg, 1 hr; read-out: Blood drug concentration
# Method: In this assay, the pharmacokinetic characteristics and ability to penetrate the blood-brain barrier of the compounds of the present application were assayed after administration of some of the compounds of the present application to SD rats, CD-1 mice or beagle dogs by single oral administration and intravenous injection. 1. […] Pharmacokinetic parameters were calculated using WinNonlin software. […]
RECORDED_METRIC: concentration at 1 h
# output: number + unit

Q. Looking for the measured concentration at 1 h of CC(C)(O)COc1ccc(F)c(-c2ccnc(N3CCC(C(=O)N4N=CC[C@H]4c4cc(F)cc(F)c4)CC3)c2)c1 (racemic) , can you help?
A. 0.253 µg/mL

Q. Looking for the measured concentration at 1 h of O=C(C1CCN(c2cc(-c3cc(OCCCO)ccc3F)ccn2)CC1)N1N=CCC1c1cc(F)cc(F)c1 (racemic) , can you help?
A. 0.17 µg/mL

---

# Tested on: L929 cells
# EXPERIMENT_SUMMARY: Inhibition of cell necrosis (CCK8 method), L929 cells
# Format: cell-based, mouse
# EXPERIMENTAL_CONTEXT: Mus musculus, L929, L929, Murine TNF-α/Z-VAD-FMK, 4-8 hours, CCK8
pIC50: −log10 of the molar value.
Please respond with reported pIC50 for every item in the list.

Q. Looking for the measured pIC50 of Cc1ccc(OCCCO)cc1-c1ccnc(N2CCC(C(=O)N3N=CCC3c3cc(F)cc(F)c3)CC2)c1 (stereo not drawn) [Example 15] , can you help?
A. 7.30 to 8.00

Q. Looking for the measured pIC50 of COCCOc1ccc(C)c(-c2ccnc(N3CCC(C(=O)N4N=CCC4c4ccccc4)CC3)c2)c1 (stereo not drawn) [Example 28] , can you help?
A. 7.00 to 7.30

Q. Looking for the measured pIC50 of COCCOc1ccc(C)c(-c2ccnc(N3CCC(C(=O)N4N=CCC4c4cc(F)cc(F)c4)CC3)c2)c1 (stereo not drawn) [Example 4] , can you help?
A. 7.30 to 8.00

Q. Looking for the measured pIC50 of O=C(C1CCN(c2cc(-c3cc(OCCCO)ccc3F)ccn2)CC1)N1N=CCC1c1cc(F)cc(F)c1 (racemic) [Example 18] , can you help?
A. 7.00 to 7.30

Q. Looking for the measured pIC50 of COCCOc1ccc(C)c(-c2ccnc(N3CCC(C(=O)N4N=CCC4c4ccccc4F)CC3)c2)c1 (stereo not drawn) [Example 19] , can you help?
A. 7.30 to 8.00

Q. Looking for the measured pIC50 of COCCCCOc1cccc(-c2ccnc(N3CCC(C(=O)N4N=CCC4c4cc(F)cc(F)c4)CC3)c2)c1 (stereo not drawn) [Example 13] , can you help?
A. 7.00 to 7.30

Q. Looking for the measured pIC50 of O=C(C1CCN(c2nccc(-c3cc(OCCCO)ccc3F)n2)CC1)N1N=CCC1c1cc(F)cc(F)c1 (stereo not drawn) [Example 38] , can you help?
A. 7.00 to 7.30

Q. Looking for the measured pIC50 of O=C(C1CCN(c2cc(-c3cc(OCC4(O)CC4)ccc3F)ccn2)CC1)N1N=CCC1c1cc(F)cc(F)c1 (stereo not drawn) [Example 45] , can you help?
A. 7.30 to 8.00

Q. Looking for the measured pIC50 of Cc1ccc(OCCCC(C)(C)O)cc1-c1ccnc(N2CCC(C(=O)N3N=CCC3c3cc(F)cc(F)c3)CC2)c1 (stereo not drawn) [Example 10] , can you help?
A. ≥ 8.00
